Tested on: A549 pERK
Assay: A549-pERK, 2 h (quantitative Western, Jess)
Format: cell-based
Settings: Homo sapiens, A549, 2 h, 10 nM, phospho:total ratio normalized to DMSO control
I'd be grateful if you could share measured activity at 0.01 µM for these entries.
Report field: quantity (unit follows the number).

Query :: Returns the measured activity at 0.01 µM for the input molecule. Input: "CNS(=O)(=O)Nc1cccc(Cc2c(CNC(=O)c3c[nH]nn3)c3ccc(OC(=O)N(C)C)cc3oc2=O)c1F"
Result :: 121%

Query :: Could you share which activity at 0.01 µM value was measured for "CNS(=O)(=O)Nc1cccc(Cc2c(CC(=O)Nc3ccon3)c3ccc(OC(=O)N(C)C)cc3oc2=O)c1F" ?
Result :: 119%

Query :: Fill blank: measured activity at 0.01 µM of the molecule "CNS(=O)(=O)Nc1cccc(Cc2c(CN(C)Cc3ccccc3)c3ccc(OC(=O)N(C)C)cc3oc2=O)c1F" is ____.
Result :: 56.4%

Query :: Which activity at 0.01 µM value is on record for "CNS(=O)(=O)Nc1cccc(Cc2c(CNc3ccn(C)n3)c3ccc(OC(=O)N(C)C)cc3oc2=O)c1F" ?
Result :: 83.7%

Query :: What measured activity at 0.01 µM goes with "CNS(=O)(=O)Nc1cccc(Cc2c(CNCC(=O)N(C)C)c3ccc(OC(=O)N(C)C)cc3oc2=O)c1F" ?
Result :: 106%

Query :: Reported activity at 0.01 µM, molecule "CNS(=O)(=O)Nc1cccc(Cc2c(CN3CC4(COC4)C3)c3ccc(OC(=O)N(C)C)cc3oc2=O)c1F" : ____
Result :: 70.5%

Query :: # lookup: activity at 0.01 µM of "CNS(=O)(=O)Nc1cccc(Cc2c(CN3CCC4(CN(C)C4)C3)c3ccc(OC(=O)N(C)C)cc3oc2=O)c1F"
Result :: 82.7%

Query :: Which value of activity at 0.01 µM has been reported for "CNS(=O)(=O)Nc1cccc(Cc2c(CNCCCCO)c3ccc(OC(=O)N(C)C)cc3oc2=O)c1F" in the records?
Result :: 99.4%

Query :: Entry "CNS(=O)(=O)Nc1cccc(Cc2c(CNc3cncs3)c3ccc(OC(=O)N(C)C)cc3oc2=O)c1F" : reported activity at 0.01 µM = ?
Result :: 74.6%

Query :: Could you tell me which activity at 0.01 µM is on file for "CNS(=O)(=O)Nc1cccc(Cc2c(CCNCC3CC3)c3ccc(OC(=O)N(C)C)cc3oc2=O)c1F" ?
Result :: 80.1%

Query :: # get_value(readout='activity at 0.01 µM', item= "CCS(=O)(=O)Nc1cccc(Cc2c(CN3CCNCC3)c3cc(Cl)c(OC(=O)N(C)C)cc3oc2=O)c1F" )
Result :: 21.7%

Query :: // activity at 0.01 µM lookup, key: "Cc1c(Cc2ccnc(NS(=O)(=O)C(C)C)c2F)c(=O)oc2cc(OC(=O)N(C)C)ccc12"
Result :: 36.6%

Query :: Fill in the blank: the reported activity at 0.01 µM of "CNS(=O)(=O)Nc1cccc(Cc2c(CN3CCNCC3)c3cc(Cl)c(OC(=O)N(C)C)cc3oc2=O)c1F" is ____.
Result :: 20.4%

Query :: Please look up its activity at 0.01 µM: "CNS(=O)(=O)Nc1cccc(Cc2c(CN3CCOCC3=O)c3ccc(OC(=O)N(C)C)cc3oc2=O)c1F"
Result :: 100%

Query :: Which activity at 0.01 µM reading was recorded for the molecule "CNS(=O)(=O)Nc1cccc(Cc2c(CN3CCN(C4CC4)CC3)c3ccc(OC(=O)N(C)C)cc3oc2=O)c1F" ?
Result :: 73%

Query :: So what's the measured activity at 0.01 µM for this one? "CNS(=O)(=O)Nc1cccc(Cc2c(CN3CCNC(=O)CC3)c3ccc(OC(=O)N(C)C)cc3oc2=O)c1F"
Result :: 80%

Query :: Please report the recorded activity at 0.01 µM for "CNS(=O)(=O)Nc1cccc(Cc2c(CNCC(=O)Nc3ccccc3)c3ccc(OC(=O)N(C)C)cc3oc2=O)c1F" .
Result :: 119%

Query :: Fill blank: measured activity at 0.01 µM of the molecule "Cc1c(Cc2ccnc(NS(=O)(=O)C3CCC3)c2F)c(=O)oc2cc(OC(=O)N(C)C)ccc12" is ____.
Result :: 54.4%

Query :: Look up activity at 0.01 µM for this molecule: "CNS(=O)(=O)Nc1cccc(Cc2c(CNc3nccs3)c3ccc(OC(=O)N(C)C)cc3oc2=O)c1F"
Result :: 93.5%

Query :: Suppose we examine the molecule "CNS(=O)(=O)Nc1cccc(Cc2c(CC(=O)Nc3ccn[nH]3)c3ccc(OC(=O)N(C)C)cc3oc2=O)c1F" ; what activity at 0.01 µM value has been reported?
Result :: 119%

Query :: For the molecule "CNS(=O)(=O)Nc1cccc(Cc2c(CN3CC(C)C3)c3ccc(OC(=O)N(C)C)cc3oc2=O)c1F" , what activity at 0.01 µM is on record?
Result :: 94.6%

Query :: Which activity at 0.01 µM value is on record for "CNS(=O)(=O)Nc1cccc(Cc2c(CNCC#N)c3ccc(OC(=O)N(C)C)cc3oc2=O)c1F" ?
Result :: 55.4%

Query :: Report activity at 0.01 µM for "CNS(=O)(=O)Nc1cccc(Cc2c(CN(C)C)c3cc(Cl)c(OC(=O)N(C)C)cc3oc2=O)c1F" please.
Result :: 42.4%

Query :: Give the measured activity at 0.01 µM of "CNS(=O)(=O)Nc1cccc(Cc2c(CNc3ccn[nH]3)c3ccc(OC(=O)N(C)C)cc3oc2=O)c1F" .
Result :: 66.7%

Query :: Fill in the blank: the reported activity at 0.01 µM of "CNS(=O)(=O)Nc1cccc(Cc2c(C)c3cc(C)c(OC(=O)N(C)C)cc3oc2=O)c1F" is ____.
Result :: 5.78%

Query :: What measured activity at 0.01 µM goes with "CNS(=O)(=O)Nc1cccc(Cc2c(CNC(=O)C(C)(C)O)c3ccc(OC(=O)N(C)C)cc3oc2=O)c1F" ?
Result :: 100%

Query :: // lookup activity at 0.01 µM for "CNS(=O)(=O)Nc1cccc(Cc2c(CNCc3cccc(C(F)(F)F)c3)c3ccc(OC(=O)N(C)C)cc3oc2=O)c1F"
Result :: 105%

Query :: Given the molecule "CNS(=O)(=O)Nc1cccc(Cc2c(CN(C)C)c3cc(F)c(OC(=O)N(C)C)cc3oc2=O)c1F" , what is its reported activity at 0.01 µM?
Result :: 66.2%

Query :: Query (molecule): "CNS(=O)(=O)Nc1cccc(Cc2c(CN(C)CC(C)C)c3ccc(OC(=O)N(C)C)cc3oc2=O)c1F" ; field requested: activity at 0.01 µM
Result :: 78.6%
